Hello, the source for this data is patent US20200216495A1, in case you need it.

- Study system: T1, His-Tau40 P301L Tau fibrils (human)
- T1 chain: RLRIRW
- Assay info: cell-based or functional assay
Square brackets hold non-standard residues; d marks the D form. Ends that are not written are not given here. Tam = not defined here
Readout type: EC50, HEK cell assay (TauRD(P301S) split luciferase, seeded with tau fibrils) (µM)

Binder	Observed value
Tam-RRRRRRRRRRGGSGG[dL][dE][dL][dK][dI][dK][dF][dW] (reading uncertain; also: printed as Tam-RRRRRRRRRR-GGSGG-lelkikfw) [Tam-RRRRRRRRRR-GGSGG-lelkikfw]	12.1
Tam-RRRRRRRRRRGGSGG[dT][dL][dK][dI][dV][dW] (reading uncertain; also: printed as Tam-RRRRRRRRRR-GGSGG-tlkivw) [Tam-RRRRRRRRRR-GGSGG-tlkivw]	3.6
RRRRRRRRRRGGSGG[dW][dR][dL][dK][dV][dR][dW][dW] [RRRRRRRRRR-GGSGG-wrlkvrww]	1.7
Tam-YGRKKRRQRRRGGSGG[dW][dR][dL][dK][dV][dR][dW][dW] (reading uncertain) [Tam-[…]-GGSGG-wrlkvrww]	1.8
Tam-RRRRRRRRRRGGSGG[dE][dL][dK][dI][dV][dW] (reading uncertain; also: printed as Tam-RRRRRRRRRR-GGSGG-elkivw) [Tam-RRRRRRRRRR-GGSGG-elkivw]	5.6
Tam-RRRRRRRRRRGGSGG[dW][dK][dV][dQ][dV][dR][dL][dW] (reading uncertain; also: printed as Tam-RRRRRRRRRR-GGSGG-wkvqvrlw) [Tam-RRRRRRRRRR-GGSGG-wkvqvrlw]	1.5
Tam-RRRRRRRRRGGSGG[dW][dR][dL][dK][dV][dR][dW][dW] (reading uncertain; also: printed as Tam-RRRRRRRRR-GGSGG-wrlkvrww) [Tam-RRRRRRRRR-GGSGG-wrlkvrww]	1.5
